- STUDY_TARGET: GABA-A receptor; anion channel
- METHOD_SUMMARY: Ability to allosterically modulate the binding of [35S]TBPS to gamma-aminobutyric-acid A receptor in rat brain cortical P2 membranes.
- Type: cell membranes, Membrane
ENDPOINT: pIC50
Just the number, please; pIC50 means minus log10 of the concentration in mol/L.

Below, 8 molecules whose answers are already recorded.
1. CC(=O)[C@H]1CC[C@H]2[C@@H]3CC[C@H]4C[C@@](O)(CI)CC[C@]4(C)[C@H]3CC[C@]12C : 6.15
2. CC(=O)[C@H]1CC[C@H]2[C@@H]3CC[C@H]4C[C@@](O)(C(F)(F)F)CC[C@]4(C)[C@H]3CC[C@]12C : 6.58
3. CCC[C@@]1(O)CC[C@@]2(C)[C@@H](CC[C@@H]3[C@@H]2CC[C@]2(C)[C@@H](C(C)=O)CC[C@@H]32)C1 : 6.76
4. COC[C@@]1(O)CC[C@@]2(C)[C@@H](CC[C@@H]3[C@@H]2CC[C@]2(C)[C@@H](C(C)=O)CC[C@@H]32)C1 : 7.12
5. CC(=O)[C@H]1CC[C@H]2[C@@H]3CC[C@H]4C[C@@](O)(CO)CC[C@]4(C)[C@H]3CC[C@]12C : 5.67
6. COC[C@@]1(O)CC[C@@]2(C)[C@H](CC[C@@H]3[C@@H]2CC[C@]2(C)[C@@H](C(C)=O)CC[C@@H]32)C1 : 7.40
7. CC(=O)[C@H]1CC[C@H]2[C@@H]3CC[C@H]4C[C@@](O)(COCc5ccccc5)CC[C@]4(C)[C@H]3CC[C@]12C : 6.42
8. C=C=CC[C@@]1(O)CC[C@@]2(C)[C@@H](CC[C@@H]3[C@@H]2CC[C@]2(C)[C@@H](C(C)=O)CC[C@@H]32)C1 : 6.44

Q: I have this molecule here, `C=C[C@@]1(O)CC[C@@]2(C)[C@H](CC[C@@H]3[C@@H]2CC[C@]2(C)[C@@H](C(C)=O)CC[C@@H]32)C1` , and I need its recorded pIC50.
A: 7.37

Q: I have this molecule here, `CC(=O)[C@H]1CC[C@H]2[C@@H]3CC[C@H]4C[C@@](O)(CF)CC[C@]4(C)[C@H]3CC[C@]12C` , and I need its recorded pIC50.
A: 6.64

====

- STUDY_TARGET: GABA-A receptor; anion channel
- METHOD_SUMMARY: Ability to allosterically modulate the binding of [35S]TBPS to gamma-aminobutyric-acid A receptor in rat brain cortical P2 membranes.
- Format: cell membranes, Membrane
Readings of pIC50 for the listed molecules
Just the number, please; pIC50 means minus log10 of the concentration in mol/L.

Below, 2 molecules whose answers are already recorded.
1) C#CC[C@@]1(O)CC[C@@]2(C)[C@@H](CC[C@@H]3[C@@H]2CC[C@]2(C)[C@@H](C(C)=O)CC[C@@H]32)C1 : 7.30
2) C#C[C@@]1(O)CC[C@@]2(C)[C@@H](CC[C@@H]3[C@@H]2CC[C@]2(C)[C@@H](C(C)=O)CC[C@@H]32)C1 : 7.19

Consider the additional molecule presented here.
Q: I have this molecule here, `CC[C@@]1(O)CC[C@@]2(C)[C@H](CC[C@@H]3[C@@H]2CC[C@]2(C)[C@@H](C(C)=O)CC[C@@H]32)C1` , and I need its recorded pIC50.
A: 6.87

====

- STUDY_TARGET: GABA-A receptor; anion channel
- METHOD_SUMMARY: Ability to allosterically modulate the binding of [35S]TBPS to gamma-aminobutyric-acid A receptor in rat brain cortical P2 membranes.
- Assay type: cell membranes, Membrane
Param label: returns Yes when IC50 < 0.2 µM, returns No otherwise, including exact equality.

Example results:
1. CCCOC[C@@]1(O)CC[C@@]2(C)[C@@H](CC[C@@H]3[C@@H]2CC[C@]2(C)[C@@H](C(C)=O)CC[C@@H]32)C1 : No
2. C#CC[C@@]1(O)CC[C@@]2(C)[C@H](CC[C@@H]3[C@@H]2CC[C@]2(C)[C@@H](C(C)=O)CC[C@@H]32)C1 : No
3. CC(=O)[C@H]1CC[C@H]2[C@@H]3CC[C@H]4C[C@@](O)(CCl)CC[C@]4(C)[C@H]3CC[C@]12C : Yes
4. CC(=O)[C@H]1CC[C@H]2[C@@H]3CC[C@@H]4C[C@@](O)(CCl)CC[C@]4(C)[C@H]3CC[C@]12C : No
5. CCOC[C@@]1(O)CC[C@@]2(C)[C@@H](CC[C@@H]3[C@@H]2CC[C@]2(C)[C@@H](C(C)=O)CC[C@@H]32)C1 : No

--- query ---
Q: Lab note: IC50 threshold 0.2 µM. Does this compound come in strictly under it? `CC[C@@]1(O)CC[C@@]2(C)[C@@H](CC[C@@H]3[C@@H]2CC[C@]2(C)[C@@H](C(C)=O)CC[C@@H]32)C1`
A: No

====

Readings of EC50 for the listed compounds
- STUDY_TARGET: GABA-A receptor; alpha-1/beta-2/gamma-2 (Homo sapiens, UniProt P14867+P18507+P47870)
- Sequence (P14867 whole entry): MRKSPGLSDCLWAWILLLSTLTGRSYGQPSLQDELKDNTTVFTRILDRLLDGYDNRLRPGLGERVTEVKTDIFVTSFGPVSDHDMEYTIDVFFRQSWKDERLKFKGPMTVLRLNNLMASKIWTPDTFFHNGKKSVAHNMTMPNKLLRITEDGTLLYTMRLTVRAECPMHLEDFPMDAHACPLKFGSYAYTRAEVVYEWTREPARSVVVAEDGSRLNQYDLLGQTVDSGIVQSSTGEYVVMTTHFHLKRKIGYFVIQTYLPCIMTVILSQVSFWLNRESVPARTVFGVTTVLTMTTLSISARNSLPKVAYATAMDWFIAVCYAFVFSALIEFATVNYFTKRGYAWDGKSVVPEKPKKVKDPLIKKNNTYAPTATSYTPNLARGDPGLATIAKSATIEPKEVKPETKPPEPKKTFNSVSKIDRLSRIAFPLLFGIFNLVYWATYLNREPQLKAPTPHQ
- Sequence (P47870 whole entry): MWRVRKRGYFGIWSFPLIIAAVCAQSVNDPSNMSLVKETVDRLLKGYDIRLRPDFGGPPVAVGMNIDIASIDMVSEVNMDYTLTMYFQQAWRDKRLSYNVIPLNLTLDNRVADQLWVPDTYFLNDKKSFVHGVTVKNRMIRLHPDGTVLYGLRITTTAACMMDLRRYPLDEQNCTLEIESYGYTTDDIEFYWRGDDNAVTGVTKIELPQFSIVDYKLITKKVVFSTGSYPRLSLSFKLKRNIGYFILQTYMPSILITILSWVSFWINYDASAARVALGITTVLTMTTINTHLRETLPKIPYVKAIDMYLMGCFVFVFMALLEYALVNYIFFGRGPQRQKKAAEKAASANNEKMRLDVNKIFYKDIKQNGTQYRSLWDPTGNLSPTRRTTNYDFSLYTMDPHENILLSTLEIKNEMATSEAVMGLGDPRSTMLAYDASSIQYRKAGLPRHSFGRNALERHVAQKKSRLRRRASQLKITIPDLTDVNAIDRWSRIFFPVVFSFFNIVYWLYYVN
- Sequence (P18507 whole entry): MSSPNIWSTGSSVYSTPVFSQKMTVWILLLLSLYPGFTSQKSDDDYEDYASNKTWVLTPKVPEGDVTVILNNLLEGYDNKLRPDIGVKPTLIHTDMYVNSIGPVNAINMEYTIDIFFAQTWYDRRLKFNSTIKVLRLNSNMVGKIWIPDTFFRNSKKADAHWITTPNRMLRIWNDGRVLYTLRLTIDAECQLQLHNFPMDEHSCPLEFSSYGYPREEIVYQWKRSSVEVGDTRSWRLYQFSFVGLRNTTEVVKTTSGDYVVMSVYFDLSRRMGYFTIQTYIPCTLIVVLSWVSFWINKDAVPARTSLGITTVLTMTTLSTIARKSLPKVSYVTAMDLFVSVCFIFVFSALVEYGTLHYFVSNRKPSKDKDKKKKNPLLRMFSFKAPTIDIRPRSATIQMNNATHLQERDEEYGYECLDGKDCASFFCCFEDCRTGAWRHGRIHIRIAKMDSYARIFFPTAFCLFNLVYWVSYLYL
- METHOD_SUMMARY: Potentiation of GABA-activated currents in Xenopus oocytes expressing cloned human alpha-1-beta-2-gamma-2L subunits of GABA-A receptor
Write the number in nM without appending the unit.

Below, 3 compounds whose answers are already recorded.
1. CC(=O)[C@H]1CC[C@H]2[C@@H]3CC[C@H]4C[C@](C)(O)CC[C@]4(C)[C@H]3CC[C@]12C : 260
2. CC(=O)[C@H]1CC[C@H]2[C@@H]3CC[C@H]4C[C@@](O)(C(F)(F)F)CC[C@]4(C)[C@H]3CC[C@]12C : 390
3. CC(=O)[C@H]1CC[C@H]2[C@@H]3CC[C@H]4C[C@H](O)CC[C@]4(C)[C@H]3CC[C@]12C : 160

Consider the additional compound presented here.
Q: I have this compound here, `CC(=O)[C@H]1CC[C@H]2[C@@H]3CC[C@H]4C[C@@](O)(CN=[N+]=[N-])CC[C@]4(C)[C@H]3CC[C@]12C` , and I need its recorded EC50.
A: 150

====

Readings of Efficacy for the listed compounds
- STUDY_TARGET: GABA-A receptor; alpha-1/beta-2/gamma-2 (Homo sapiens) (UniProt P14867+P47870+P18507)
- METHOD_SUMMARY: Efficacy as fractional response (FR) relative to GABA maximal current elicited in Xenopus oocytes
- Assay type: functional, cell-based
- EXPERIMENTAL_CONDITIONS: Oocyte
Output: the number by itself.

1) CC(=O)[C@H]1CC[C@H]2[C@@H]3CC[C@H]4C[C@](C)(O)CC[C@]4(C)[C@H]3CC[C@]12C : 0.8
2) CC(=O)[C@H]1CC[C@H]2[C@@H]3CC[C@H]4C[C@H](O)CC[C@]4(C)[C@H]3CC[C@]12C : 0.91
3) CC(=O)[C@H]1CC[C@H]2[C@@H]3CC[C@H]4C[C@@](O)(C(F)(F)F)CC[C@]4(C)[C@H]3CC[C@]12C : 0.3

Q: I have this compound here, `CC(=O)[C@H]1CC[C@H]2[C@@H]3CC[C@H]4C[C@@](O)(CN=[N+]=[N-])CC[C@]4(C)[C@H]3CC[C@]12C` , and I need its recorded Efficacy.
A: 0.8

====

- STUDY_TARGET: GABA-A receptor; anion channel
- METHOD_SUMMARY: Ability to allosterically modulate the binding of [35S]TBPS to gamma-aminobutyric-acid A receptor in rat brain cortical P2 membranes.
- Assay type: cell membranes, Membrane
Readings of pIC50 for the listed compounds
Just the number, please; pIC50 means minus log10 of the concentration in mol/L.

Below, 5 compounds whose answers are already recorded.
1) CC(=O)[C@H]1CC[C@H]2[C@@H]3CC[C@H]4C[C@@](O)(CBr)CC[C@]4(C)[C@H]3CC[C@]12C : 6.65
2) CC(C)(C)OC(=O)c1ncn2c1C1CCCN1C(=O)c1c(Br)cccc1-2 (centres undefined) : 8.21
3) CC(=O)[C@H]1CC[C@H]2[C@@H]3CC[C@H]4C[C@@](O)(CC#N)CC[C@]4(C)[C@H]3CC[C@]12C : 6.21
4) C=CCC[C@@]1(O)CC[C@@]2(C)[C@@H](CC[C@@H]3[C@@H]2CC[C@]2(C)[C@@H](C(C)=O)CC[C@@H]32)C1 : 6.49
5) C=C[C@@]1(O)CC[C@@]2(C)[C@@H](CC[C@@H]3[C@@H]2CC[C@]2(C)[C@@H](C(C)=O)CC[C@@H]32)C1 : 6.92

Q: I have this compound here, CC(=O)[C@H]1CC[C@H]2[C@@H]3CC[C@H]4C[C@H](O)CC[C@]4(C)[C@H]3CC[C@]12C [BREXANOLONE] , and I need its recorded pIC50.
A: 7.29

Q: I have this compound here, `CC(=O)[C@H]1CC[C@H]2[C@@H]3CC[C@H]4C[C@@](O)(CN=[N+]=[N-])CC[C@]4(C)[C@H]3CC[C@]12C` , and I need its recorded pIC50.
A: 7.57

Q: I have this compound here, CC(=O)[C@H]1CC[C@H]2[C@@H]3CC[C@H]4C[C@](C)(O)CC[C@]4(C)[C@H]3CC[C@]12C [GANAXOLONE] , and I need its recorded pIC50.
A: 7.10

Q: I have this compound here, `C=CC[C@@]1(O)CC[C@@]2(C)[C@@H](CC[C@@H]3[C@@H]2CC[C@]2(C)[C@@H](C(C)=O)CC[C@@H]32)C1` , and I need its recorded pIC50.
A: 6.64
